- Study target: GlunN1/GluN2A glutamate receptors (Homo sapiens, UniProt Q05586+Q12879)
- Construct: expressed in transfected cells
- Sequence (Q12879 23-1464, other chains not shown): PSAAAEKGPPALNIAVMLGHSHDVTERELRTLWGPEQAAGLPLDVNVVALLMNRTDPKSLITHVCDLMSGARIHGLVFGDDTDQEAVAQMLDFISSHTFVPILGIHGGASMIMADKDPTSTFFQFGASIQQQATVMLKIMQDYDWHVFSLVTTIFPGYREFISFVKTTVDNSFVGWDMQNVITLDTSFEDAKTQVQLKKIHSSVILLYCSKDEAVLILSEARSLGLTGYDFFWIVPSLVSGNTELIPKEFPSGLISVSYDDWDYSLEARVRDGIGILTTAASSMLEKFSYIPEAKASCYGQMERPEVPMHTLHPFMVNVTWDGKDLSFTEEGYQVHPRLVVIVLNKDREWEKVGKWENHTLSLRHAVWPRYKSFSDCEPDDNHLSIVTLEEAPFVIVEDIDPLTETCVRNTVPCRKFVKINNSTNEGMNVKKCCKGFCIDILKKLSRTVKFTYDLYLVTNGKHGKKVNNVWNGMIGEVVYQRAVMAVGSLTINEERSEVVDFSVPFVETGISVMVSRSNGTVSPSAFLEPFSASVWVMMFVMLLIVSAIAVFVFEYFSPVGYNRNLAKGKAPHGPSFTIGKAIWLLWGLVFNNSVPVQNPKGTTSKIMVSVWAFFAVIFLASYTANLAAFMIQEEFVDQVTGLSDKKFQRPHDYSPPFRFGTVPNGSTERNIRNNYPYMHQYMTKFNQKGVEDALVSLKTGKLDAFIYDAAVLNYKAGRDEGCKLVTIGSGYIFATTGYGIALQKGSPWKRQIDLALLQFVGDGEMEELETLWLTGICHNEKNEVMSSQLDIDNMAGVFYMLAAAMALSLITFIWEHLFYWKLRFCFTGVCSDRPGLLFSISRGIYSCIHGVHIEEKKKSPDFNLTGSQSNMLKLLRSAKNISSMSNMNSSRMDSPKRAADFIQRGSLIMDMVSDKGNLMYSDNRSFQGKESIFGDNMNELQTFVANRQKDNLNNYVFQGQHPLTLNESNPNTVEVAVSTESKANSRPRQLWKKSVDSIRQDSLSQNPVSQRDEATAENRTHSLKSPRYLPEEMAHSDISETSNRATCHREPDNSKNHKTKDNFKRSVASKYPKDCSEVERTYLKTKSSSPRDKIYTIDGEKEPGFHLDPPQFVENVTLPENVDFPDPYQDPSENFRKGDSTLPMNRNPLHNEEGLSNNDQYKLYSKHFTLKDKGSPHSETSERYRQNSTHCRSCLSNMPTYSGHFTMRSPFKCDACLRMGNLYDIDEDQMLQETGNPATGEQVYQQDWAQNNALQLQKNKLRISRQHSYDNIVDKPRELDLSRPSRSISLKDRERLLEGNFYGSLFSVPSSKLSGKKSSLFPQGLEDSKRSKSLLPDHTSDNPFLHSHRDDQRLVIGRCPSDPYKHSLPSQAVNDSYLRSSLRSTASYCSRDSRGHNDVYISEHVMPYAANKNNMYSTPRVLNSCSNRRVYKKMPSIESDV
- Procedure summary: Whole-cell patch clamp of mammalian cells (Ionworks Barracuda), positive allosteric modulation (PAM) of NMDA receptor, 2A
- Assay type: cell-based
- Test context: HEK293, HEK293 cells; % activation of current elicited with EC20 L-glutamate and 30 µM glycine
Endpoint label: Emax (%)
Record the value in %, omitting the unit from your answer.

Q) Quick one: Emax for C[C@H](CCC(O)C(C)(C)C)[C@H]1CC[C@H]2[C@@H]3CC=C4C[C@](O)(C(F)(F)F)CC[C@]4(C)[C@H]3CC[C@]12C (stereo partly drawn) ?
A) 303

Q) Data request, read-out Emax, for `CC[C@]1(O)CC[C@H]2C(=CC[C@@H]3[C@@H]2CC[C@]2(C)[C@@H]([C@H](C)CC[C@@H](O)C(C)C)CC[C@@H]32)C1`
A) 291

Q) Please look up its Emax: `CC[C@]1(O)CC[C@H]2C(=CC[C@@H]3[C@@H]2CC[C@]2(C)[C@@H]([C@H](C)CC[C@]4(O)CCOC4)CC[C@@H]32)C1`
A) 294
